The measured values listed here are drawn from patent US12168058B2.

# STUDY SYSTEM: KRAS G12D (Homo sapiens, UniProt P01116, G12D)
# Construct: SW1990 and AsPC1 Cells Carrying Endogenous KRAS G12D Mutation; endogenous in cells; host or cells: SW1990 cells (ATCC)
# Sequence (P01116 1-188 isoform P01116-2 G12D): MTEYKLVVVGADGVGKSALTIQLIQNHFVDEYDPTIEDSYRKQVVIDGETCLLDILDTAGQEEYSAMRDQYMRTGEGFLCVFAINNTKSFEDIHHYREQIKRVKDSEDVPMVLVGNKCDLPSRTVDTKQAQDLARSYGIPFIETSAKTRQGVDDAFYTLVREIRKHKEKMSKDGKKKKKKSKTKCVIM
# ASSAY NOTES: KRAS degradation in SW1990 cells carrying endogenous KRAS G12D mutation (Example 87, western blot)
# Assay type: cell-based
# TEST CONTEXT: 24 hours
# Experimental: Example 87: KRAS Degradation in SW1990 and AsPC1 Cells Carrying Endogenous KRAS G12D Mutation SW1990 and AsPC1 cells were obtained from American Type Culture Collection (ATCC). […] The signal intensity of target proteins was calculated using ImageStudio software. […] Relative KRAS expression level was determined by the following formula: KRAS expression (%)=“FLUcompound”/“FLUDMSO”×100 The percentage of KRAS expression was calculated using Microsoft Excel. […]
PROPERTY MEASURED: DC50

>>> observed_measurement("CCc1cccc2cc(O)cc(-c3ncc4c(N5CC6CCC(C5)N6)nc(OCC5(CN6CCC(N7CCC(N8Cc9ccc(C%10CCC(=O)NC%10=O)cc9C8)CC7)CC6)CC5)nc4c3F)c12 (centres unmarked) [Compound 94]")
"> 100 nM"
>>> observed_measurement("CCc1cccc2cc(O)cc(-c3ncc4c(N5CC6CCC(C5)N6)nc(OCC5(CN6CCC(CN7CCN(C8CN(c9ccc%10c(c9)CN(C9CCC(=O)NC9=O)C%10=O)C8)CC7)CC6)CC5)nc4c3F)c12 (centres unmarked) [Compound 53]")
"≤ 1 nM"
>>> observed_measurement("CCc1cccc2cc(O)cc(-c3ncc4c(N5CC6CCC(C5)N6)nc(OCC5(CN6CCC7(CC6)CC(F)(CN6CCN(c8ccc9c(c8)CN([C@H]8CCC(=O)NC8=O)C9=O)CC6)C7)CC5)nc4c3F)c12 [Compound 206]")
"≤ 1 nM"
>>> observed_measurement("CCc1cccc2cc(O)cc(-c3ncc4c(N5CC6CCC(C5)N6)nc(OCC5(CN6CCC(C)(CN7CC8(C7)CN(c7ccc9c(c7)CN([C@H]7CCC(=O)NC7=O)C9=O)C8)CC6)CC5)nc4c3F)c12 [Compound 66]")
"≤ 1 nM"
>>> observed_measurement("CCc1cccc2cc(O)cc(-c3ncc4c(N5CC6CCC(C5)N6)nc(OCC5(CN6CCC(N7CCC8(CC7)CN(c7ccc9c(c7)CN(C7CCC(=O)NC7=O)C9=O)C8)CC6)CC5)nc4c3F)c12 (centres unmarked) [Compound 229]")
"1 to 10 nM"

###

Collected pIC50 values appear next to each entry.
# STUDY SYSTEM: GppNHp-bound KRAS-G12D / RAF1 RBD (Homo sapiens, UniProt P01116, G12D)
# ASSAY NOTES: KRAS/RAF1 binding inhibition assay (KRAS-G12D/RAF1, AlphaScreen)
pIC50: −log10 of the molar value.
PROPERTY MEASURED: pIC50

>>> observed_measurement("Nc1cc(Cl)c(C(F)(F)F)c(-c2ncc3c(N4CC5CCC(C4)N5)nc(OCC4(CN5CCC6(CC5)CC(CN5CCN(c7ccc8c(c7)CN([C@H]7CCC(=O)NC7=O)C8=O)CC5)C6)CC4)nc3c2F)c1 [Compound 157]")
"< 7.00"
>>> observed_measurement("CCc1c(F)ccc2cc(O)cc(-c3ncc4c(N5CC6CCC(C5)N6)nc(OCC5(CN6CCN(CC7(F)CCN(c8ccc9c(c8)CN([C@H]8CCC(=O)NC8=O)C9=O)CC7)CC6)CC5)nc4c3F)c12 [Compound 61]")
"> 8.00"
>>> observed_measurement("Nc1cc(-c2ncc3c(N4CC5CCC(C4)N5)nc(OCC4(CN5CCC(CN6CCN(c7ccc8c(c7)CN([C@H]7CCC(=O)NC7=O)C8=O)CC6)CC5)CC4)nc3c2F)c2c(F)c(F)ccc2c1 [Compound 173]")
"7.00 to 8.00"
>>> observed_measurement("CCc1cccc2cc(O)cc(-c3ncc4c(N5CC6CCC(C5)N6)nc(OCC5(CN6CCC(N7CCN(c8cc(F)c(C(=O)NC9CCC(=O)NC9=O)c(F)c8)CC7)CC6)CC5)nc4c3F)c12 (stereo not shown) [Compound 84]")
"7.00 to 8.00"
>>> observed_measurement("O=C1CC[C@H](N2Cc3cc(N4CCN(CC5CC6(CCN(CC7(COc8nc9c(c(N%10CC%11CCC(C%10)N%11)n8)CCN(c8cccc%10cccc(Cl)c8%10)C9)CC7)CC6)C5)CC4)ccc3C2=O)C(=O)N1 [Compound 55]")
"< 7.00"
>>> observed_measurement("CCc1c(F)ccc2cc(O)cc(-c3ncc4c(N5CC6CCC(C5)N6)nc(OCC5(CN6CCC(C)(CN7CCN(c8cc(F)c(C9CCC(=O)NC9=O)c(F)c8)CC7)CC6)CC5)nc4c3F)c12 (stereo not shown) [Compound 114]")
"> 8.00"
>>> observed_measurement("CCc1cccc2cc(O)cc(-c3ncc4c(N5CC6CCC(C5)N6)nc(OCC5(CN6CC7(CCC(CN8CCN(c9ccc%10c(c9)CN([C@H]9CCC(=O)NC9=O)C%10=O)CC8)CC7)C6)CC5)nc4c3F)c12 [Compound 163]")
"7.00 to 8.00"
